Experiment: Plasma pharmacokinetic study
Type: in vivo, CD-1 mice
Conditions: male, CD-1, mouse, plasma; IV 5 mg/kg, 4 hr
quantity.measured: concentration at 4 h (ng/mL)
Supply the numeric figure in ng/mL, leaving out any unit text.

input: For the molecule shown here, CC(C)=CCOc1cc(OCCCNC(=N)N)cc2oc3cc(OCCCNC(=N)N)ccc3c(=O)c12 [XT17] , give the reported concentration at 4 h.
output: 23.3

* * *

Assay: Plasma pharmacokinetic study
Type: in vivo, CD-1 mice
Details: male, CD-1, mouse, plasma; SC 40 mg/kg, 0.5 hr
From the text: […]
quantity.measured: concentration at 0.5 h (ng/mL)
# value in ng/mL; strip the unit string

input: Look at this molecule and give its reported concentration at 0.5 h. CC(C)=CCOc1cc(OCCCNC(=N)N)cc2oc3cc(OCCCNC(=N)N)ccc3c(=O)c12 [XT17]
output: 7340
